Would you mind telling me the reported Mouse PPB of each entry?
# Experiment Description: Mouse plasma protein binding, rapid equilibrium dialysis
# Assay type: in vitro ADME
# unit: % | format: bare number

Ask | Bench note: what Mouse PPB did C[C@@H]1Cc2c([nH]c3cc(F)c(F)cc23)[C@]2(N1)C(=O)Nc1ccc(Cl)cc12 [(−)-6] show?
Reply | 99.6

Ask | Bench note: what Mouse PPB did C[C@@H]1Cc2c([nH]c3cc(Cl)c(F)cc23)[C@]2(N1)C(=O)Nc1ccc(Cl)cc12 [(−)-7] show?
Reply | 99.4

Ask | Bench note: what Mouse PPB did C[C@H]1Cc2c([nH]c3ccc(F)cc23)[C@@]2(N1)C(=O)Nc1ccc(Cl)cc12 [(+)-4] show?
Reply | 98.8

* * *

# Experiment Description: In vivo PK after single p.o. and i.v. dosing in CD-1 mice
# Design: species or system female CD-1 mice
# Condition Summary: i.v. 5 mg/kg, CD-1 mice
Property Measured: log10(Vss) (log10 of the value in L/kg)
Would you kindly interpret these values as log10 of Vss expressed in L/kg?

Ask | Bench note: what log10(Vss) did C[C@H]1Cc2c([nH]c3ccc(Cl)cc23)[C@@]2(N1)C(=O)Nc1ccc(Cl)cc12 [(+)-2] show?
Reply | 1.00

Ask | Bench note: what log10(Vss) did C[C@H]1Cc2c([nH]c3cc(Cl)ccc23)[C@@]2(N1)C(=O)Nc1ccc(Cl)cc12 [(+)-3] show?
Reply | 1.14

Ask | Bench note: what log10(Vss) did C[C@H]1Cc2c([nH]c3ccccc23)[C@@]2(N1)C(=O)Nc1ccc(Cl)cc12 [(+)-1] show?
Reply | -0.05

Ask | Bench note: what log10(Vss) did C[C@@H]1Cc2c([nH]c3cc(F)c(F)cc23)[C@]2(N1)C(=O)Nc1ccc(Cl)cc12 [(−)-6] show?
Reply | 0.45

Ask | Bench note: what log10(Vss) did C[C@H]1Cc2c([nH]c3ccc(F)cc23)[C@@]2(N1)C(=O)Nc1ccc(Cl)cc12 [(+)-4] show?
Reply | 0.28

Ask | Bench note: what log10(Vss) did C[C@@H]1Cc2c([nH]c3cc(Cl)c(F)cc23)[C@]2(N1)C(=O)Nc1ccc(Cl)cc12 [(−)-7] show?
Reply | 0.11

Ask | Bench note: what log10(Vss) did C[C@H]1Cc2c([nH]c3cc(F)c(F)cc23)[C@@]2(N1)C(=O)Nc1ccc(Cl)cc12 [(+)-6] show?
Reply | 0.20

Ask | Bench note: what log10(Vss) did C[C@H]1Cc2c([nH]c3cc(F)ccc23)[C@@]2(N1)C(=O)Nc1ccc(Cl)cc12 [(+)-5] show?
Reply | 0.20

* * *

# Experiment Description: In vivo PK after single p.o. and i.v. dosing in CD-1 mice
# Design: species or system female CD-1 mice
# Condition Summary: female, mouse, plasma, iv; i.v. 5 mg/kg, CD-1 mice; read-out: Vss
Property Measured: Vd (L/kg)
# unit: L/kg | format: bare number

Ask | Bench note: what Vd did C[C@H]1Cc2c([nH]c3cc(Cl)c(F)cc23)[C@@]2(N1)C(=O)Nc1ccc(Cl)cc12 [(+)-7 (KAE609)] show?
Reply | 2.1

* * *

# Experiment Description: In vivo PK after single p.o. and i.v. dosing in CD-1 mice
# Set-up: species or system female CD-1 mice
# Condition Summary: female, mouse, plasma; single oral dose 25 mg/kg, CD-1 mice; read-out: AUC0–24
Property Measured: AUC(0-t) (ng·h/mL)
# unit: ng·h/mL | format: bare number

Ask | Bench note: what AUC(0-t) did C[C@H]1Cc2c([nH]c3cc(Cl)c(F)cc23)[C@@]2(N1)C(=O)Nc1ccc(Cl)cc12 [(+)-7 (KAE609)] show?
Reply | 43300
